target: D(2) dopamine receptor (Homo sapiens) (UniProt P14416); assay: Displacement of [3H]YM091512 from dopamine D2 receptor at 10 uM
Sequence (P14416 whole entry): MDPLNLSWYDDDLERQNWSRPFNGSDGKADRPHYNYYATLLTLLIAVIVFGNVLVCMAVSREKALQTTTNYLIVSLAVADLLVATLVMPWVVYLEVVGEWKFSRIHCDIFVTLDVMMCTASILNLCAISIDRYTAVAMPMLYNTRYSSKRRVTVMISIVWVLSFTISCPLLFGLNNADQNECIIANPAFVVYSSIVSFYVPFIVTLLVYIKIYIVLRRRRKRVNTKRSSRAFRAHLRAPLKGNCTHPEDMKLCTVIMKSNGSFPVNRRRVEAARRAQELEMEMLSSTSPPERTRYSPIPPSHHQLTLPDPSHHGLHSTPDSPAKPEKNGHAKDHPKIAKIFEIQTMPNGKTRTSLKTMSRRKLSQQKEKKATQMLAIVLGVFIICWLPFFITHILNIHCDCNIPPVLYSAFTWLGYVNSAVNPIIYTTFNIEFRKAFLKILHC
Could you please report measured Activity for the items listed next?
Give the figure together with its unit, number first.

Recorded Activity for `CCN(CC)Cc1ccc(CN2c3ccccc3Sc3ccc(C(F)(F)F)cc32)cc1` on D(2) dopamine receptor (Homo sapiens) (UniProt P14416) was 97%

Recorded Activity for `FC(F)(F)c1ccc2c(c1)N(Cc1ccc(CNc3cccc(Oc4ccccc4)c3)cc1)c1ccccc1S2` on D(2) dopamine receptor (Homo sapiens) (UniProt P14416) was 26%

Recorded Activity for `CN(CCCN1c2ccccc2Sc2ccc(C(F)(F)F)cc21)Cc1ccccc1` on D(2) dopamine receptor (Homo sapiens) (UniProt P14416) was 99%

----------
molecular target: 5-hydroxytryptamine receptor 2C (Homo sapiens) (UniProt P28335); test: Displacement of [3H]mesulergine from 5HT2C receptor at 10 uM
Sequence (P28335 whole entry): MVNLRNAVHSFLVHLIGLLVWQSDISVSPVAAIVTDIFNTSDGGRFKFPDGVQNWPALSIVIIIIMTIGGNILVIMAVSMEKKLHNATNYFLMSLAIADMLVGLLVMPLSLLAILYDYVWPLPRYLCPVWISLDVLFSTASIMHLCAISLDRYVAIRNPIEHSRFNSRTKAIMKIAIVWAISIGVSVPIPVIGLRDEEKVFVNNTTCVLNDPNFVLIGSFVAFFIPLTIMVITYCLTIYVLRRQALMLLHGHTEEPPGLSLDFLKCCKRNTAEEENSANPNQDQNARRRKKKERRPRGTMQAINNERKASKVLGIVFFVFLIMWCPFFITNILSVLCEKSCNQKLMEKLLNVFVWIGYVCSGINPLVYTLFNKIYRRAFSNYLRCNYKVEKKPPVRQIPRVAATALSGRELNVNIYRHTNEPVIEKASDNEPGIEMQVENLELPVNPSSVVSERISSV
Label key: yes means Activity under 60%; no means Activity of 60% or more.

Q: # TODO verify Activity < 60% strictly for this molecule: CN1CCCC(CN2c3ccccc3Sc3ccc(C(F)(F)F)cc32)C1 (centres undefined)
Ans: yes

Q: # TODO verify Activity < 60% strictly for this molecule: `FC(F)(F)c1ccc2c(c1)N(Cc1ccc(CNc3cccc(Oc4ccccc4)c3)cc1)c1ccccc1S2`
Ans: yes

Q: # TODO verify Activity < 60% strictly for this molecule: `FC(F)(F)c1ccc2c(c1)N(CCCNCc1ccccc1)c1ccccc1S2`
Ans: no

Q: # TODO verify Activity < 60% strictly for this molecule: CN1CCCC(CN2c3ccccc3Sc3cc(F)ccc32)C1 (centres undefined)
Ans: no

Q: # TODO verify Activity < 60% strictly for this molecule: CN1CCCC(CN2c3ccccc3Sc3cc(Cl)ccc32)C1 (centres undefined)
Ans: no

Q: # TODO verify Activity < 60% strictly for this molecule: OC1CCN(CCCN2c3ccccc3Sc3ccc(C(F)(F)F)cc32)C1 (centres undefined)
Ans: no

Q: # TODO verify Activity < 60% strictly for this molecule: `FC(F)(F)c1ccc2c(c1)N(Cc1ccc(CNc3nccs3)cc1)c1ccccc1S2`
Ans: yes

Q: # TODO verify Activity < 60% strictly for this molecule: `FC(F)(F)c1ccc2c(c1)N(Cc1ccc(CN3CCN(c4ncccn4)CC3)cc1)c1ccccc1S2`
Ans: yes

Q: # TODO verify Activity < 60% strictly for this molecule: `CCN(CC)Cc1ccc(CN2c3ccccc3Sc3ccc(C(F)(F)F)cc32)cc1`
Ans: yes

Q: # TODO verify Activity < 60% strictly for this molecule: `FC(F)(F)c1ccc2c(c1)N(CCCN1CCN(c3ncccn3)CC1)c1ccccc1S2`
Ans: no

Q: # TODO verify Activity < 60% strictly for this molecule: `FC(F)(F)c1ccc2c(c1)N(CCCNc1cccc(Oc3ccccc3)c1)c1ccccc1S2`
Ans: yes

Q: # TODO verify Activity < 60% strictly for this molecule: `FC(F)(F)c1ccc2c(c1)N(Cc1ccc(CN3c4ccccc4Sc4ccc(C(F)(F)F)cc43)cc1)c1ccccc1S2`
Ans: yes

Q: # TODO verify Activity < 60% strictly for this molecule: `FC(F)(F)c1ccc2c(c1)N(CCCNc1ccccn1)c1ccccc1S2`
Ans: no

Q: # TODO verify Activity < 60% strictly for this molecule: `CN1CCN(Cc2ccc(CN3c4ccccc4Sc4ccc(C(F)(F)F)cc43)cc2)CC1`
Ans: yes

Q: # TODO verify Activity < 60% strictly for this molecule: CN1CCCC(CN2c3ccccc3Sc3cc(N4CCOCC4)ccc32)C1 (centres undefined)
Ans: yes

Q: # TODO verify Activity < 60% strictly for this molecule: `CN(CCCN1c2ccccc2Sc2ccc(C(F)(F)F)cc21)Cc1ccccc1`
Ans: no

Q: # TODO verify Activity < 60% strictly for this molecule: CC1CN(Cc2ccc(CN3c4ccccc4Sc4ccc(C(F)(F)F)cc43)cc2)CC(C)O1 (centres undefined)
Ans: yes

Q: # TODO verify Activity < 60% strictly for this molecule: `FC(F)(F)c1ccc2c(c1)N(Cc1ccc(CNCc3ccccc3)cc1)c1ccccc1S2`
Ans: yes

Q: # TODO verify Activity < 60% strictly for this molecule: Cc1ccc2c(c1)Sc1ccccc1N2CC1CCCN(C)C1 (centres undefined)
Ans: yes

Q: # TODO verify Activity < 60% strictly for this molecule: `FC(F)(F)c1ccc2c(c1)N(Cc1ccc(CNc3ccccn3)cc1)c1ccccc1S2`
Ans: yes

Q: # TODO verify Activity < 60% strictly for this molecule: `FC(F)(F)c1ccc2c(c1)N(CCCNc1nccs1)c1ccccc1S2`
Ans: no

Q: # TODO verify Activity < 60% strictly for this molecule: CC1CN(CCCN2c3ccccc3Sc3ccc(C(F)(F)F)cc32)CC(C)O1 (centres undefined)
Ans: yes

Q: # TODO verify Activity < 60% strictly for this molecule: COc1ccc2c(c1)Sc1ccccc1N2CC1CCCN(C)C1 (centres undefined)
Ans: yes

Q: # TODO verify Activity < 60% strictly for this molecule: `CN(Cc1ccccc1)Cc1ccc(CN2c3ccccc3Sc3ccc(C(F)(F)F)cc32)cc1`
Ans: yes

Q: # TODO verify Activity < 60% strictly for this molecule: CC(CO)NCCCN1c2ccccc2Sc2ccc(C(F)(F)F)cc21 (centres undefined)
Ans: no

Q: # TODO verify Activity < 60% strictly for this molecule: OC1CCN(Cc2ccc(CN3c4ccccc4Sc4ccc(C(F)(F)F)cc43)cc2)C1 (centres undefined)
Ans: no

Q: # TODO verify Activity < 60% strictly for this molecule: `CCN(CC)CCCN1c2ccccc2Sc2ccc(C(F)(F)F)cc21`
Ans: no

Q: # TODO verify Activity < 60% strictly for this molecule: CN1CCCC(CN2c3ccccc3Sc3ccccc32)C1 (centres undefined)
Ans: yes

Q: # TODO verify Activity < 60% strictly for this molecule: CN1CCCC(CN2c3ccccc3Sc3cc(-c4ccccc4)ccc32)C1 (centres undefined)
Ans: yes

Q: # TODO verify Activity < 60% strictly for this molecule: CN(C)CCCN1c2ccccc2Sc2ccc(Cl)cc21.Cl [CHLORPROMAZINE HYDROCHLORIDE]
Ans: no

Q: # TODO verify Activity < 60% strictly for this molecule: `FC(F)(F)c1ccc2c(c1)N(CCCN1c3ccccc3Sc3ccc(C(F)(F)F)cc31)c1ccccc1S2`
Ans: no

Q: # TODO verify Activity < 60% strictly for this molecule: CN1CCCC(CN2c3ccccc3Sc3cccnc32)C1 (centres undefined)
Ans: yes

Q: # TODO verify Activity < 60% strictly for this molecule: CN1CCCC(CN2c3ccccc3Sc3ccc(-c4ccccc4)cc32)C1 (centres undefined)
Ans: yes
